- testedTarget: Proto-oncogene tyrosine-protein kinase receptor Ret (Homo sapiens, UniProt P07949)
- Sequence (P07949 whole entry): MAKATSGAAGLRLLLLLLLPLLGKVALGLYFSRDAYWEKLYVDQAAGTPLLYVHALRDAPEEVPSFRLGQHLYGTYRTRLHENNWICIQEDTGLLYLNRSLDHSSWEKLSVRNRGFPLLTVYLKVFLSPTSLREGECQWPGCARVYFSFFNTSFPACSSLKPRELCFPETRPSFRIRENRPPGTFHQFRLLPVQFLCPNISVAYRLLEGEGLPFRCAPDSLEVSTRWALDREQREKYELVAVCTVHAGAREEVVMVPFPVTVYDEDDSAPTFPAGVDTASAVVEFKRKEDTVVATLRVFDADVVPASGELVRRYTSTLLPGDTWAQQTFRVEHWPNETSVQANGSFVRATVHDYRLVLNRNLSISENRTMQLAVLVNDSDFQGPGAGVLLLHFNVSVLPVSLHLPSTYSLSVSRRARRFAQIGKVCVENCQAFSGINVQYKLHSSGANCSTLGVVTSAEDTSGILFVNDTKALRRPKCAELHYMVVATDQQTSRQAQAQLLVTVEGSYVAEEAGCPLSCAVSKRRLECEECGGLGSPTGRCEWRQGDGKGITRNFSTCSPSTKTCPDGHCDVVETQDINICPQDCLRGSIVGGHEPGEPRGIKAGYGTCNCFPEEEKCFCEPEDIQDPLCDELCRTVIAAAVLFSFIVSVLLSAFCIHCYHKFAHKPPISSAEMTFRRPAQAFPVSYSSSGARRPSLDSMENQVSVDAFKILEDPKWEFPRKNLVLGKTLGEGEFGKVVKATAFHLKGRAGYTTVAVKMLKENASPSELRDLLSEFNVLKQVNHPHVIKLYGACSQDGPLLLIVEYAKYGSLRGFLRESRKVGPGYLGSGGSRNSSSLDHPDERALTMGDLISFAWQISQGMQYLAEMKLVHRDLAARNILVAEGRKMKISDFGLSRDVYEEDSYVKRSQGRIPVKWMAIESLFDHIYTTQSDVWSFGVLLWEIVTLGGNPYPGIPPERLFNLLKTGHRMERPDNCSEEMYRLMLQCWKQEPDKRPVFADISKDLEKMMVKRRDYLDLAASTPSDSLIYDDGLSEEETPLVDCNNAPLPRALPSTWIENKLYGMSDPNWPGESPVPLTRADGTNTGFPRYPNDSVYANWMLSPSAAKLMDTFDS
- method: Inhibition of recombinant human RET using poly (Glu, Tyr) 4:1 as substrate after 60 mins by ELISA
metricName: IC50

# input So what does the record say about IC50 for C[C@@H](Oc1ccc2[nH]nc(-c3nc4cc(N5CCN(C)CC5)ccc4[nH]3)c2c1)c1c(Cl)cncc1Cl ?
# output > 100 nM

* * *

- testedTarget: Fibroblast growth factor receptor 2 (Homo sapiens, UniProt P21802)
- Sequence (P21802 whole entry): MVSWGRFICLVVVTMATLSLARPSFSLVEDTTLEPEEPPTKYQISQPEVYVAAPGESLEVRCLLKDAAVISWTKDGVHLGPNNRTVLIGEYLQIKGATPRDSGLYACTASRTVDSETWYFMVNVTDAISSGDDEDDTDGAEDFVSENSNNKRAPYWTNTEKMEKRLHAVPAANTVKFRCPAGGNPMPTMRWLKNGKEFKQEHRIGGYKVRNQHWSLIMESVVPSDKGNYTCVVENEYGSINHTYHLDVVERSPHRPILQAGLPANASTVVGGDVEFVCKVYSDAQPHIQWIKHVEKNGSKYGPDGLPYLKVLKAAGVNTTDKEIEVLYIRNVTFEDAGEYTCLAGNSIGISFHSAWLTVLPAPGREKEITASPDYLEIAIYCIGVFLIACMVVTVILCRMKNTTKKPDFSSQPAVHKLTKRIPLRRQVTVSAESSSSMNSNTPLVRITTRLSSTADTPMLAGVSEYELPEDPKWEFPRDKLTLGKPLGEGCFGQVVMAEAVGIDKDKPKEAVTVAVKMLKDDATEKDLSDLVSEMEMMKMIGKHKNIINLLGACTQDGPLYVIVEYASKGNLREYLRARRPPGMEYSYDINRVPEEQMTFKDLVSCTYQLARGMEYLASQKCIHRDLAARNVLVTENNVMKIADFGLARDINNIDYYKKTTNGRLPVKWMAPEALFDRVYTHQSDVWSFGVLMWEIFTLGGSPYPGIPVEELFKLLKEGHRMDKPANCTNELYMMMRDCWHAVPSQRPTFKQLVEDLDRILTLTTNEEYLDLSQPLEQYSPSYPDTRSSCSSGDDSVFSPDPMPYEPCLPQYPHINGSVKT
- method: Inhibition of recombinant human FGFR2 using poly (Glu, Tyr) 4:1 as substrate after 60 mins by ELISA
metricName: IC50 (nM)
The response must be a number in nM with no trailing unit.

# input Please look up its IC50: C[C@@H](Oc1ccc2[nH]nc(-c3nc4cc(N5CCN(C)CC5)ccc4[nH]3)c2c1)c1c(Cl)cncc1Cl
# output 2

* * *

- testedTarget: Hepatocyte growth factor receptor (Homo sapiens)
- Sequence (P08581 whole entry): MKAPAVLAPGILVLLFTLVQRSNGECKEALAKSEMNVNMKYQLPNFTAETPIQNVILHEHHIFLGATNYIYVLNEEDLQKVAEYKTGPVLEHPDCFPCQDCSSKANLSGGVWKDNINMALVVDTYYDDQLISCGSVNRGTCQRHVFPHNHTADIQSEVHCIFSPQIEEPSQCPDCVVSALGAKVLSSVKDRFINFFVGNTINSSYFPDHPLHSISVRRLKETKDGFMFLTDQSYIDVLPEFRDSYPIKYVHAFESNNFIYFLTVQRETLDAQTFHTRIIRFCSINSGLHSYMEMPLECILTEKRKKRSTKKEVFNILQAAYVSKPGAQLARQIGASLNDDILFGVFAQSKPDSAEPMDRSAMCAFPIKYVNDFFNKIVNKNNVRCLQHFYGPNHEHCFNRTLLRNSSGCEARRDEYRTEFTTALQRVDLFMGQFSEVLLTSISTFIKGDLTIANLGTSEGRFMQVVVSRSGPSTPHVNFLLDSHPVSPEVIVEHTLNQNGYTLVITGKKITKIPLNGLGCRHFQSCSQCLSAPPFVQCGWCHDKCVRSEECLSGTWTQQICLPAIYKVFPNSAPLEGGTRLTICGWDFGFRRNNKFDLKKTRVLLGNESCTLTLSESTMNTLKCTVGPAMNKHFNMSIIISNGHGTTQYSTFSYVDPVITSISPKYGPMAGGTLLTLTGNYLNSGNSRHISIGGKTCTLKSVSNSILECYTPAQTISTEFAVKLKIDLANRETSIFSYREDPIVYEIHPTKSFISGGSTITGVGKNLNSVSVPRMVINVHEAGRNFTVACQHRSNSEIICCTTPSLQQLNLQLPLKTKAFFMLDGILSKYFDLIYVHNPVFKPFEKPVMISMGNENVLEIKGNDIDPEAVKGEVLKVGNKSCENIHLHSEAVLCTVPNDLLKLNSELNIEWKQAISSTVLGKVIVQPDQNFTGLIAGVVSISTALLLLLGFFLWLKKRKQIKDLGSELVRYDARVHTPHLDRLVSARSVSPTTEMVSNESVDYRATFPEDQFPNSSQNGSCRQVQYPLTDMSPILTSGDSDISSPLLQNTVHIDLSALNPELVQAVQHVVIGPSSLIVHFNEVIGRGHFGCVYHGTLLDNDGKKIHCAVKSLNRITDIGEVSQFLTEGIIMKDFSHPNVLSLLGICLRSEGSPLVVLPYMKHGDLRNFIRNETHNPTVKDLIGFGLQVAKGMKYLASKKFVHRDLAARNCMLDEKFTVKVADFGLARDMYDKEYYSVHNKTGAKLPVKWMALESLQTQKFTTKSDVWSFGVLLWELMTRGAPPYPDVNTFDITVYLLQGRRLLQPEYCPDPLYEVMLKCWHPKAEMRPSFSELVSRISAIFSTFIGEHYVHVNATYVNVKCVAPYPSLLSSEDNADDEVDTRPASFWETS
- method: Inhibition of recombinant human c-Met using poly (Glu, Tyr) 4:1 as substrate after 60 mins by ELISA
pIC50: −log10 of the molar value.
metricName: pIC50

# input Looking for the measured pIC50 of C[C@@H](Oc1ccc2[nH]nc(-c3nc4cc(N5CCN(C)CC5)ccc4[nH]3)c2c1)c1c(Cl)cncc1Cl , can you help?
# output < 7.00
